experimentDescription: label from the status in PepcDB records
property: protein production

sequenceRecord | testValue
MSRFPRRFIDDSSMEDAGISLCPSIHYRPINPNDLDRLEQIHRDIFPIKYESEFFQSVVNGVDIVSWAAVDRSRPDDHSDELIGFVTAKFVLAKDSEIDDLIHYDSSKGEETLIYILTLGVVETYRNRGIAMSLISEVIKYASGLSVCRGVYLHVIAHNNAAICLYKRLMFRCVRRLHGFYLINRHHFDAFLFVYFINGSRTPCSPLEVAMFVVNYMKSGIKSVASKLANKDEKGLKWLFCKDTDCV | failed
MSRKRTENGSESGPATSHVPVDRFGFLKQEHANSPERFSKSKTTSSTDHDREERKVRKWRKMIGVGGSDWKHYVRRKPNVVRRRIRKGIPDCLRGLVWQLISGSRDLLLMNPGVYEQLVIYETSASELDIIRDISRTFPSHVFFQKRHGPGQRSLYNVLKAYSVYDRDVGYVQGMGFIAGLLLLYMSEEDAFWLLVALLKGAVHAPMEGLYHAGLPLVQQYLFQLESLVKELIPKLGEHFTQEMINPSMYASQWFITVFSYSFPFPLALRIWDVFLSEGVKIVFKVGLALLKYCQDELVSKVTV | failed

====

experimentDescription: label from the status in PepcDB records

sequenceRecord | protein production
MKVTDVRLRKIQTDGRMKALVSITLDEAFVIHDLRVIEGNSGLFVAMPSKRTPDGEFRDIAHPINSDMRQEIQDAVMKVYDETDEVVPDKNATSEDSEEA | not failed
MPVSIFMTVVNKSGVLARVTAEIAKADSNIDDITLENDKDYTTMRFILQTRDRQHLAQIFRRLKHIDEIVKMGRIKNLLEHHHHHH | not failed

====

experimentDescription: label from the status in PepcDB records

sequenceRecord | protein production
MSLARVLLNIHGTGDTVVLALCDEDLLGVELKYKGRTLHISEPFYSGKSMEPDRAAKKIREAVQEYEDEKTVAINALGELACSVVVDAGLAREDEIGELGGVPHVQMYILPREPFLEGHHHHHH | not failed
MIQCEECLCWQHSVCMGLLEESIPEQYICYICRDPPGQRWSAKYRYDKEWLNNGRMCGLSFFKENYSHLNAKKIVSTHHLLADVYGVTEVLHGLQLKIGILKNKHHPDLHLWACSGKRKDQDQIIAGVEKKIAQDTVNREEKKYVQNHKEPPRLPLKMEGTYITSEHSYQKPQSFGQDCKSLADPGSSDDDDVSSLEEEQEFHMRSKNSLQYSAKEHGMPEKNPAEGNTVFVYNDKKGTEDPGDSHLQWQLNLLTHIENVQNEVTSRMDLIEKEVDVLESWLDFTGELEPPDPLARLPQLKRHIKQLLIDMGKVQQIATLCSV | not failed

====

experimentDescription: label from the status in PepcDB records
property: protein production

sequenceRecord | property | testValue
MPIELRRLRALRLAWGVALCLAVSFGIGLPVPILAPVFAVLLLAMRSQPLPLRAAPALALLVLLACGSGLLLIPLLRHAPLAGVLLVGVGVFLTLRYALKGGNGLLANLLVVGLTMIAAAGTSDFTLALSVVEALAKGMLLAVLGTSVVHTLFPEPANAPAPPVPPLLGSEHVSWVALRATLIVMPAFLLALIAPDQYMPLIMKAVSVGQQAGETRARHASRELIGSTLLAGVLAIALWVALSLFVHLWMFFLWVLLFALWQARRLYQAVPSRQSPAYWVSCLTTMLILLGQSVQDSAGGQDVYKAFAVRMALFLAVSVYASAMLIWIDRLRSRRGLLRG | protein production | failed
MVITGKFAMYVTAFVVTVSLIEAFVLWRKRRDGVKPFSWNEVWLSLADLAGRKLSVLLPLSLAAPVFSFAWDHRLFTITLNSALAVFLLFVGQEFCYYWYHRAAHRIRFFWATHAVHHSPNQLTLTSAYRLGWTGKLTGSAVFFAPLVLLGVRPEVVLATLSLNLLYQFWLHNDWMPKLGWFEYVFNTPSAHRVHHASNIDYLDANYGGVLIIFDRLFGTYVEERADEPCRYGLVHPTTTQNPIVNQFEHWVSLGRDMASASKLWHAAAYLIMPPGWAPNGKGTTTEILRRQQEELRQAGWQRPGVV | protein production | failed
